Here, each record is paired with measured cell viability data.
system: P12-Ichikawa; assay: cell viability relative to DMSO control; higher = less cytotoxic; settings: RPMI 5 mM glucose + 10% dialyzed FBS; 48 h; 0.00702 µM
Dear colleague, please return just the value in %, with no unit written.

These recorded examples may help you get a feel for the data.
Fill in: cell viability of `Cc1cc(OCCC[S+](C)(=O)[O-])cc(C)c1-c1cccc(COc2ccc3c(c2)OC[C@H]3CC(=O)O)c1` is ___
102

Input CC1(CN2CCC(n3c(=O)[nH]c4ccccc43)CC2)OCc2ccccc2-n2cccc21 (stereo not drawn)
96.4

More entries:
Please report the recorded cell viability for CCOC(=O)C(C#N)C\1C2=CC(=CC=C2O\C(=C1C(=O)OCC)N)Br (stereo not drawn) .
105
